Where do the numbers come from? From PubChem BioAssay (NCI).

System: DU-145 prostate
Assay: NCI-60 one-dose screen, 48 h (100 = growth as untreated, 0 = no growth, -100 = all killed)
Details: 10 µM unless noted
Compounds without any hit were thinned out: in the full panel of roughly 83,000, 20% have a hit.
// NO strictly below 20% in growth; YES otherwise

Consider the following illustrative entries.
Record COc1ccc(-c2cc(-c3cc(OC)c(OC)c(OC)c3)[nH]c(=O)c2C#N)cc1 ; criterion: growth no lower than 20%. Met?
YES

Record O=C(N/N=C/c1ccc(Br)o1)c1[nH]c2ccc(Br)cc2c1-c1ccccc1 ; criterion: growth no lower than 20%. Met?
NO

Record CCCn1c(NC(=O)c2cccc(C(N)=O)c2)nc2ccc(CN3CCCCC3)cc21 ; criterion: growth no lower than 20%. Met?
YES

Record COc1cc(C2CC(c3ccc(S(=O)(=O)NCCNc4nc(N(C)C)nc(N5CCOCC5)n4)cc3)=Nc3c(N)nc(N)nc3N2)cc(OC)c1OC (centres undefined) ; criterion: growth no lower than 20%. Met?
YES

Record CNc1nc2ccccc2n2c(-c3ccc(O)c(O)c3)cnc12 ; criterion: growth no lower than 20%. Met?
NO

Record COc1ccc2c(c1)C(Sc1ccc(Cl)cc1)c1c(nc(N)c(C#N)c1N)O2 (centres undefined) ; criterion: growth no lower than 20%. Met?
YES

Record CCOC(=O)c1ccc(NC(=S)NC(=O)c2ccc(NC(=O)C(C)C)cc2OC)cc1 ; criterion: growth no lower than 20%. Met?
YES

Record COc1cc(CNC(=O)C[C@H](C)CCC=C(C)C)ccc1OCc1cn(-c2cccc(C(F)(F)F)c2)nn1 ; criterion: growth no lower than 20%. Met?
YES

Others:
Record COc1ccc(-c2nc3ccccc3n2CC(=O)N=Nc2c(O)[nH]c3ccc(Br)cc23)cc1 ; criterion: growth no lower than 20%. Met?
YES

Record COc1ccc(-c2cc(-c3cc(C(C)C)c(O)cc3C)nn2-c2ccc(S(N)(=O)=O)cc2)cc1 ; criterion: growth no lower than 20%. Met?
NO

Record CC(C)(C)C(=O)C1CC(C#N)=C2C=Cc3c(ccc4ccccc34)N21 (centres undefined) ; criterion: growth no lower than 20%. Met?
YES

Record Cc1ccc(S(=O)(=O)Nc2ccc(-c3ccc4c(c3)NC(=O)/C4=C\c3ccc[nH]3)cc2)cc1 ; criterion: growth no lower than 20%. Met?
YES

Record COc1ccc2[nH]c(O)c(N=Nc3nc(-c4ccc(C#N)cc4)cs3)c2c1 ; criterion: growth no lower than 20%. Met?
YES

Record O=C(c1ccc(O)cc1)C1[C@H](c2ccccc2Br)[C@@H](c2ccccc2)NC12C(=O)Nc1ccccc12 (some centres undefined) ; criterion: growth no lower than 20%. Met?
YES

Record COc1cncc(-c2ccc3ncnc(N4CCc5ccc(Cl)cc54)c3c2)c1 ; criterion: growth no lower than 20%. Met?
YES

Record Nc1nc(-c2ccccc2)c(N=Nc2ccc(Cl)cc2Cl)s1 ; criterion: growth no lower than 20%. Met?
NO

Record Cc1cccc(/C=C/c2ccc(NC(=S)NCCCCN(C)C)cc2)c1 ; criterion: growth no lower than 20%. Met?
NO

Record c1n[nH]cc1-c1nc2ccc3[nH]ncc3c2c2c1CC1(CCOCC1)CC2 ; criterion: growth no lower than 20%. Met?
YES

Record O=C(CSc1nnc(-c2ccc(-c3nc4ccccc4[nH]3)cc2)o1)Nc1ccccc1 ; criterion: growth no lower than 20%. Met?
NO
